system: quinone reductase (QR) in Hepa 1c1c7 murine hepatoma cells; assay: Induction of QR (inducer potency, CD value) in Hepa 1c1c7 murine hepatoma cells; type: cell-based; details: Mus musculus, Hepa-1c1c7, read-out: CD value, Table 1; QR induction, Hepa 1c1c7 cells
Reported EC (2-fold QR specific activity) by item:

compound	system.tested	unit.descriptor	EC (2-fold QR specific activity)
C[S+]([O-])CCCN=C=S (stereo not shown)	quinone reductase (QR) in Hepa 1c1c7 murine hepatoma cells	µM	2.4
C[S+]([O-])CCCCCN=C=S (stereo not shown)	quinone reductase (QR) in Hepa 1c1c7 murine hepatoma cells	µM	0.95
CSCCCCCN=C=S	quinone reductase (QR) in Hepa 1c1c7 murine hepatoma cells	µM	1.7
CSCCCN=C=S	quinone reductase (QR) in Hepa 1c1c7 murine hepatoma cells	µM	3.5
CS(=O)(=O)CCCN=C=S	quinone reductase (QR) in Hepa 1c1c7 murine hepatoma cells	µM	1.3
CS(=O)(=O)CCCCCN=C=S	quinone reductase (QR) in Hepa 1c1c7 murine hepatoma cells	µM	0.98
CS(=O)(=O)CCCCN=C=S	quinone reductase (QR) in Hepa 1c1c7 murine hepatoma cells	µM	0.82
